assay: The drug is tested on WLS-039 corresponding to human gut metagenome with ENA study accession number: PRJEB37062 and ENA sample accession number: ERS12561746 for biotransformation under anaerobic condition. The drug concentrations were measured over 9 timepoints collected between 0 and 24 hours of incubation by liquid-chromatography-coupled mass spectrometry (LC–MS); settings: 2 µM; note: call rule not given here
RECORDED ENDPOINT: Bacterial Biotransformation

CCN(CC)CCOC(=O)C1(C2CCCCC2)CCCCC1 ... Compound NOT metabolized
COC1=C(OC)C(=O)C(CCCCCCCCCCO)=C(C)C1=O ... Compound metabolized
CC(C)[C@H]1CC[C@H](C(=O)N[C@H](Cc2ccccc2)C(=O)O)CC1 [NATEGLINIDE] ... Compound NOT metabolized
C[N+]12CCC(CC1)C(OC(=O)C(O)(c1ccccc1)c1ccccc1)C2.[Br-] (configuration not stated) [CLIDINIUM BROMIDE] ... Compound metabolized
OCCN(CCO)c1nc(N2CCCCC2)c2nc(N(CCO)CCO)nc(N3CCCCC3)c2n1 ... Compound metabolized
CC(C)(C)N.CCC[C@H](N[C@@H](C)C(=O)N1[C@H](C(=O)O)C[C@@H]2CCCC[C@@H]21)C(=O)OCC ... Compound NOT metabolized
O=P1(N(CCCl)CCCl)NCCCO1 (configuration not stated) [CYCLOPHOSPHAMIDE ANHYDROUS] ... Compound NOT metabolized
Nc1nc(N)nc(-c2cc(Cl)ccc2Cl)n1.O=C(O)/C=C\C(=O)O [IRSOGLADINE MALEATE] ... Compound NOT metabolized
CCS(=O)(=O)CCn1c([N+](=O)[O-])cnc1C ... Compound metabolized
CCOC(=O)[C@H](CCc1ccccc1)N[C@@H](C)C(=O)N1Cc2ccccc2C[C@H]1C(=O)O ... Compound metabolized
COc1cc2nc(N3CCN(C(=O)C4CCCO4)CC3)nc(N)c2cc1OC (configuration not stated) ... Compound NOT metabolized
CC(C)(C)NC(=O)[C@H]1CC[C@H]2[C@@H]3CC[C@H]4NC(=O)C=C[C@]4(C)[C@H]3CC[C@]12C [FINASTERIDE] ... Compound metabolized
CCOc1ccc2nc(S(N)(=O)=O)sc2c1 [ETHOXZOLAMIDE] ... Compound NOT metabolized
CC(C)(C)NCC(O)c1cc(Cl)c(N)c(Cl)c1 (configuration not stated) ... Compound NOT metabolized
O=C1CC2(CCCC2)CC(=O)N1CCCCN1CCN(c2ncccn2)CC1 ... Compound NOT metabolized
Cc1ccccc1C(OCCN(C)C)c1ccccc1.O=C(O)CC(O)(CC(=O)O)C(=O)O (configuration not stated) [ORPHENADRINE CITRATE] ... Compound metabolized
CCOC(=O)C1=C[C@]2(CC)CCCN3CCc4c(n1c1ccccc41)[C@@H]32 ... Compound NOT metabolized
